# ASSAY SYSTEM: α4β1 integrin (Homo sapiens (Human), UniProt P05556+P13612)
# Sequence (P13612 34-1032): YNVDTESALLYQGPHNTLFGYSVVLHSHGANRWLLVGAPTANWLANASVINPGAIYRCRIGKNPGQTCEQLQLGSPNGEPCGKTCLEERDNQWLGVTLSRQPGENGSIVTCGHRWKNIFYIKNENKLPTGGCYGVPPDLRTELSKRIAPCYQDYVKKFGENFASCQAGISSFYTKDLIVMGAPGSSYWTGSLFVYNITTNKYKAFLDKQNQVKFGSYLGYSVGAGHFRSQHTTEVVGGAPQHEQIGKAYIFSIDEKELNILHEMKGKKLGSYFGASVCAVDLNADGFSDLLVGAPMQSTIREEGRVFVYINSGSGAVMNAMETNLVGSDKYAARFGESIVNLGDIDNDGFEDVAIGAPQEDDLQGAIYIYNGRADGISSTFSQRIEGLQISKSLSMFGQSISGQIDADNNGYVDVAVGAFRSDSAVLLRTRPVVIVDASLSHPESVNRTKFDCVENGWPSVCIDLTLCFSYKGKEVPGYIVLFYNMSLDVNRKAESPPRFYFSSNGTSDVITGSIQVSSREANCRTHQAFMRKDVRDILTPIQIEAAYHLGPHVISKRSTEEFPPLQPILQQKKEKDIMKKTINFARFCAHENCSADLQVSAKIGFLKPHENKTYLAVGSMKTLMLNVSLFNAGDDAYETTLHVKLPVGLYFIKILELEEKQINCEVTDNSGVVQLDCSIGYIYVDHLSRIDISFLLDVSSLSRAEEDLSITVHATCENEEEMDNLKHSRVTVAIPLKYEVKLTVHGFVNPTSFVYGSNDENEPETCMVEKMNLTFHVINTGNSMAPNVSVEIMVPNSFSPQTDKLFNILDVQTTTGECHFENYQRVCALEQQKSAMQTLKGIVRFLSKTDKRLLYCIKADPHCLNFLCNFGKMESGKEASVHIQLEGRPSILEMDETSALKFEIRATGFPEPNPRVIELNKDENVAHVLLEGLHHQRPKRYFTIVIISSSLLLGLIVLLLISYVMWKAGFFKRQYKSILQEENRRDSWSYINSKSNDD
# Sequence (P05556 21-798): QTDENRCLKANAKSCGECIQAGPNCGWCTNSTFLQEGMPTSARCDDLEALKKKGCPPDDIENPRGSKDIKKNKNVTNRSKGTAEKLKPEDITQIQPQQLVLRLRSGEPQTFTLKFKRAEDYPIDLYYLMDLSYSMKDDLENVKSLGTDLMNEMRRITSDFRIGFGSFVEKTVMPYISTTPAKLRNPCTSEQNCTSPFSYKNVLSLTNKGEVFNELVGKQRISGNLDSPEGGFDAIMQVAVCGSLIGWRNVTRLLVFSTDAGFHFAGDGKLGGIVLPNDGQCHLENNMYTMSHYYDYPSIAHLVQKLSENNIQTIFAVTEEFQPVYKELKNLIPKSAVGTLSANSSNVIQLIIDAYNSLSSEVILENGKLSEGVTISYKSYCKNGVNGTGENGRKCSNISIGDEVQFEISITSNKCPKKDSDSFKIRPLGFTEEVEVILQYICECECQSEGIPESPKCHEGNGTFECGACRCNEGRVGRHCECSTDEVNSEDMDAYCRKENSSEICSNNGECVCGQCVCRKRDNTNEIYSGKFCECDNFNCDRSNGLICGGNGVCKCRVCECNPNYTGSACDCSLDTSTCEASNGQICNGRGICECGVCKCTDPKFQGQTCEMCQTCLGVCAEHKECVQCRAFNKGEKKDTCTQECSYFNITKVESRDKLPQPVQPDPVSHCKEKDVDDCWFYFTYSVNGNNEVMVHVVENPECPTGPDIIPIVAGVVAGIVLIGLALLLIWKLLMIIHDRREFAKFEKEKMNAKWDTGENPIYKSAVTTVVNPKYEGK
# PROTOCOL TEXT: Integrin Adhesion Assay: Protocol 5 (VCAM-coated plate, RPMI-8866 cells with stable LOF mutation of the ITGB7 gene)
# Assay type: cell-based
# MEASUREMENT PARAMETERS: RPMI-8866 cells with stable LOF mutation of the ITGB7 gene; read-out: Mean IC50 α4β1 KO^b
# From the text: Integrin Adhesion Assay Using Genetically Modified Cells Generating Stable Cell Lines with ITGB1 or ITGB7 Knockout (Protocol 4 and Protocol 5) […] To generate an individual clones of cells deficient in either ITGB7 or ITGB1 by limiting dilution assay, the transfected cells were resuspended at 5 cells/mL and seeded in 384 well plates. Outgrowth of clones was monitored using a microscope, and 24 clones were transferred for expansion. […]
PROPERTY: IC50

1. Cn1c(=O)c(-c2cccc3c(C[C@H](NC(=O)c4c(F)cc(N5CCOC[C@@H]5C(F)(F)F)cc4CN4CCCC4)C(=O)O)cccc23)c(C(F)(F)F)c2ccccc21 | > 1000 nM
2. Cn1c(=O)c(-c2cccc3c(C[C@H](NC(=O)c4c(F)cccc4CN4CCCC4)C(=O)O)cccc23)c(C(F)(F)F)c2ccccc21 | > 1000 nM
3. Cn1c(=O)c(-c2cccc3c(C[C@H](NC(=O)C4(C(F)(F)F)CCN([C@H]5CCOC5)CC4)C(=O)O)cccc23)c(C(F)(F)F)c2ccccc21 [Compound 458] | 100 to 1000 nM
4. CN(C)Cc1cccc2c(-c3cccc4c(C[C@H](NC(=O)c5c(F)cc(N6CCOC[C@@H]6C(F)(F)F)cc5CN5CCC(N(C)C)CC5)C(=O)O)cccc34)nccc12 | > 1000 nM
5. O=C(O)[C@H](Cc1cccc2c(-c3ncc(CN4CCCCC4)c4ccccc34)cccc12)NC(=O)C1(C(F)(F)F)CCN(C2COC2)CC1 | 100 to 1000 nM
6. COc1ccc(CN2CCC3(CCOC3)CC2)c(OC)c1-c1cccc2c(C[C@H](NC(=O)c3c(C)cccc3F)C(=O)O)cccc12 | > 1000 nM

====

# ASSAY SYSTEM: α4β7 integrin (Homo sapiens (Human), UniProt P13612+P26010)
# Sequence (P13612 34-1032): as the sequence (P13612 34-1032) above
# Sequence (P26010 20-798): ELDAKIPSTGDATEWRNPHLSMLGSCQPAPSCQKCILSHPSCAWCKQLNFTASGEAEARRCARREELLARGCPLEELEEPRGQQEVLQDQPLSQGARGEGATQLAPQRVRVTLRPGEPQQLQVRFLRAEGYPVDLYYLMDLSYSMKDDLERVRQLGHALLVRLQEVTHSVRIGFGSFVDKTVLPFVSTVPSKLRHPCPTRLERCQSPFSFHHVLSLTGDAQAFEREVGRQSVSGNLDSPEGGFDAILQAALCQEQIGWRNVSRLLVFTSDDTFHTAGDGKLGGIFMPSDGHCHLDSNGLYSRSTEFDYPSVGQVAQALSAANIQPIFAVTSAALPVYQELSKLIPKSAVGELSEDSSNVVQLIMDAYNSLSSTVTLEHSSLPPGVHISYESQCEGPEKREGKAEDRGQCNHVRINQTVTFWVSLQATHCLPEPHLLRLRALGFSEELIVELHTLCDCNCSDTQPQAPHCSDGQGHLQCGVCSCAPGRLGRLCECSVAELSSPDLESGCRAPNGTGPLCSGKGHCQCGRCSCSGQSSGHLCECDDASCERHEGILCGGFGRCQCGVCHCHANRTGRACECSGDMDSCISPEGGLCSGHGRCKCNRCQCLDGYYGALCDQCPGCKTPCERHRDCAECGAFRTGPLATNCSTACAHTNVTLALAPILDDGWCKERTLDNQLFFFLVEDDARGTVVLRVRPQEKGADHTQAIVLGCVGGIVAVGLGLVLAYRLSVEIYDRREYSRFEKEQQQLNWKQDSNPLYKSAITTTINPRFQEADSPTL
# PROTOCOL TEXT: Integrin Adhesion Assay: Protocol 4 (MAdCAM-coated plate, RPMI-8866 cells with stable LOF mutation of the ITGB1 gene)
# Format: cell-based
# MEASUREMENT PARAMETERS: RPMI-8866 cells with stable LOF mutation of the ITGB1 gene; read-out: Mean IC50 α4β7 KO^a
pIC50: −log10 of the molar value.
PROPERTY: pIC50

1) COc1ccc(CN2CC(F)C2)c(OC)c1-c1cccc2c(C[C@H](NC(=O)c3c(C)cccc3F)C(=O)O)cccc12 | > 8.00
2) Cn1c(=O)c(-c2cccc3c(C[C@H](NC(=O)c4c(F)cc(C5CCNC5)cc4F)C(=O)O)cccc23)c(C(F)(F)F)c2ccccc21 (stereo partly drawn) | 6.00 to 7.00
3) Cn1c(=O)c(-c2cccc3c(C[C@H](NC(=O)C4(C(F)(F)F)CCN(CC#N)CC4)C(=O)O)cccc23)c(C(F)(F)F)c2ccccc21 | 7.00 to 8.00
4) COc1ccc(CN2CCC(F)(F)CC2)c(OC)c1-c1cccc2c(C[C@H](NC(=O)c3c(C)cc4cnn(CC(F)(F)F)c4c3F)C(=O)O)cccc12 | 7.00 to 8.00
5) COc1ccc(CN(C)C)c(OC)c1-c1cccc2c(C[C@H](NC(=O)c3c(C)cc(C4CC(F)(F)C4)cc3F)C(=O)O)cccc12 | > 8.00
6) COc1ccc(CN2CCN(C3CCC3)CC2)c(OC)c1-c1cccc2c(C[C@H](NC(=O)c3c(C)cccc3F)C(=O)O)cccc12 | > 8.00
7) COc1ccc(CN2CCCC(F)C2)c(C(F)(F)F)c1-c1cccc2c(C[C@H](NC(=O)c3c(C)cccc3F)C(=O)O)cccc12 (stereo partly drawn) | 7.00 to 8.00
8) O=C(O)[C@H](Cc1cccc2c(-c3c(C(F)(F)F)ccc4cccnc34)cccc12)NC(=O)C1(C(F)(F)F)CCN(CC(F)(F)F)CC1 | 7.00 to 8.00
9) CO[C@H]1C[C@H](c2cc(F)c(C(=O)N[C@@H](Cc3cccc4c(-c5c(C(F)(F)F)c6ccccc6n(C)c5=O)cccc34)C(=O)O)c(F)c2)N(C)C1 | 6.00 to 7.00
10) COc1ccc(CN2CCC(F)(F)C2)c(OC)c1-c1cccc2c(C[C@H](NC(=O)c3c(C)cccc3F)C(=O)O)cccc12 | 7.00 to 8.00
11) Cn1c(=O)c(-c2cccc3c(C[C@H](NC(=O)[C@]4(C)CC[C@@H](N5CCS(=O)(=O)CC5)CC4)C(=O)O)cccc23)c(C(F)(F)F)c2ccccc21 [Compound 403] | 7.00 to 8.00
12) Cn1c(=O)c(-c2cccc3c(C[C@H](NC(=O)C45CC(NCC(F)(F)F)(C4)C5)C(=O)O)cccc23)c(C(F)(F)F)c2ccccc21 [Compound 447] | 6.00 to 7.00
13) Cn1c(=O)c(-c2cccc3c(C[C@H](NC(=O)c4c(F)cc(N5CC6C(C5)C6(F)F)cc4F)C(=O)O)cccc23)c(C(F)(F)F)c2ccccc21 (stereo partly drawn) | 6.00 to 7.00
14) CC(C)CC1CC(C)(C(=O)N[C@@H](Cc2cccc3c(-c4c(C(F)(F)F)c5ccccc5n(C)c4=O)cccc23)C(=O)O)CCN1CC(F)(F)F (stereo partly drawn) | < 6.00
15) COc1ccc(CCN(C)C)c(OC)c1-c1cccc2c(C[C@H](NC(=O)C3(C(F)(F)F)CCN(CC(F)(F)F)CC3)C(=O)O)cccc12 | > 8.00
16) COc1cc(CN2CCCCC2)ccc1-c1cccc2c(C[C@H](NC(=O)c3c(C)cccc3F)C(=O)O)cccc12 | 7.00 to 8.00
17) COc1cc2c(c(OC)c1-c1cccc3c(C[C@H](NC(=O)c4c(C)cccc4F)C(=O)O)cccc13)CN(CC(F)(F)F)CC2 | > 8.00
18) COc1ccc(CN2CCCCC2C)c(OC)c1-c1cccc2c(C[C@H](NC(=O)c3c(C)cccc3F)C(=O)O)cccc12 (stereo partly drawn) | > 8.00
19) Cn1c(=O)c(-c2cccc3c(C[C@H](NC(=O)C4(C(F)(F)F)CCN(C(C)(C)C(F)(F)F)CC4)C(=O)O)cccc23)c(C(F)(F)F)c2ccccc21 | 6.00 to 7.00
20) Cn1c(=O)c(-c2cccc3c(C[C@H](NC(=O)C4(C)CN(C5CCOC(C(F)(F)F)C5)C4)C(=O)O)cccc23)c(C(F)(F)F)c2ccccc21 (stereo partly drawn) | 6.00 to 7.00
21) Cn1c(=O)c(-c2cccc3c(C[C@H](NC(=O)c4c(F)cc(N5CC(F)(F)OC(F)(F)C5)cc4F)C(=O)O)cccc23)c(C(F)(F)F)c2ccccc21 | 6.00 to 7.00
22) COc1ccc(CN2CCOCC2)c(OC)c1-c1cccc2c(C[C@H](NC(=O)c3c(C)cccc3F)C(=O)O)cccc12 | > 8.00
23) CN1CCCC1c1cc(-c2cccc3c(C[C@H](NC(=O)C4(C(F)(F)F)CCN(CC(F)(F)F)CC4)C(=O)O)cccc23)c2cnccc2c1 (stereo partly drawn) | 7.00 to 8.00
24) COc1ccc(CN(C)CC(F)F)c(OC)c1-c1cccc2c(C[C@H](NC(=O)c3c(C)cccc3F)C(=O)O)cccc12 | > 8.00
